# experiment-summary: isothermal titration calorimetry with Cd2+
# Type: binding
# conditions-used: pH 7.4, 25 °C, read-out: apparent dissociation constant KD
readout-kind: Kd (µM)

- molecule: "Cc1cc(=O)[nH]c(-n2nc3c(c2C)CCCC3)n1 [Compound 13]"
  observed-measurement: 6.4

###

# experiment-summary: acid-base titration with NaOH
# Type: physicochemical
# conditions-used: Milli-Q water with 10% DMSO, ~2 mM compound, read-out: pKa2
readout-kind: pKa

- molecule: "Cc1cc(O)nc(-n2nc(C)cc2C)n1 [Compound 5]"
  readout-kind: "pKa"
  observed-measurement: 6.5
- molecule: "Cc1nn(-c2ccccn2)c(O)c1C(=O)Nc1cccc(C(F)(F)F)c1 [Compound 3, reference compound]"
  readout-kind: "pKa"
  observed-measurement: 6.7
- molecule: "Cc1cc(=O)[nH]c(-n2nc3c(c2C)CCCC3)n1 [Compound 13]"
  readout-kind: "pKa"
  observed-measurement: 7

Numbers sourced from paper PMC7649969.
